Molecular target: HeLa cell extract proteins (Homo sapiens, UniProt O95197)
Construct: endogenous in cells; host or cells: HeLa cell extract
Sequence (O95197 whole entry): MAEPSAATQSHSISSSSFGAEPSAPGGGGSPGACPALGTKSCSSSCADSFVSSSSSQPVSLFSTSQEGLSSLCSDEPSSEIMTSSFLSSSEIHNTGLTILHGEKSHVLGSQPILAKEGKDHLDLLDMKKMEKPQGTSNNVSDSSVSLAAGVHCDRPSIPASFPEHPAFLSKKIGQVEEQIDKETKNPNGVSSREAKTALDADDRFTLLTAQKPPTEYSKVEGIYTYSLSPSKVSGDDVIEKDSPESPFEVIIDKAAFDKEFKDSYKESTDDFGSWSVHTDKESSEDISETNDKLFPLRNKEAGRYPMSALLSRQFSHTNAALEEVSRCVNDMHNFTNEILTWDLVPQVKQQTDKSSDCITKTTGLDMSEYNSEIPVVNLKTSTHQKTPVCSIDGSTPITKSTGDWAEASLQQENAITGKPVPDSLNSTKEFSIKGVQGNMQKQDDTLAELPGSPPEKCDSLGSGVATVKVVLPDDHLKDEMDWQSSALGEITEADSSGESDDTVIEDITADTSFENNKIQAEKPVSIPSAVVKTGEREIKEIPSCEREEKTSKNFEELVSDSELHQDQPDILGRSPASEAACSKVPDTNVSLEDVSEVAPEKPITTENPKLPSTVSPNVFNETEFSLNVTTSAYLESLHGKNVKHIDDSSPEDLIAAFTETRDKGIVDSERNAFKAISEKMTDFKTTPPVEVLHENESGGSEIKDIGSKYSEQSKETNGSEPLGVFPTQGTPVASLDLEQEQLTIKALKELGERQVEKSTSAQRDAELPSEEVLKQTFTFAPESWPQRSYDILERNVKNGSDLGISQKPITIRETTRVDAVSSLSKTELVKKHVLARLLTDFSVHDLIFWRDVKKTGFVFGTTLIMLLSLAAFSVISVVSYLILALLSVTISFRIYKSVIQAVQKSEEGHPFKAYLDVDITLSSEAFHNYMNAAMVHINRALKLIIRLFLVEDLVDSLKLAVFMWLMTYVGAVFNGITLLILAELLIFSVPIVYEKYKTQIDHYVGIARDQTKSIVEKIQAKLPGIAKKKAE
Type: binding
Conditions: protein RTN3; HeLa
Returns one of criterion met or criterion not met; criterion met when fold changes relative to vehicle control is >= 1.

Consider the following illustrative entries.
Record CCCCCCOc1cccc(Cc2cnc(N)nc2N)c1 ; criterion: fold changes relative to vehicle control no lower than 1. Met?
criterion met

Ok, now Nc1nc2cccc(-c3ccccc3)c2n1Cc1ccc(Cl)c(Cl)c1
criterion not met

Ok, now NCCCNc1ccc(C(=O)NC(CCC(=O)O)C(=O)O)cc1 (stereo not drawn)
criterion not met

Ok, now NCCOCCOCC(=O)Nc1nc2ncc(CNc3ccc(C(=O)NC(CCC(=O)O)C(=O)O)cc3)nc2c(=O)[nH]1 (stereo not drawn)
criterion not met

Okay, now this compound:
Record Nc1nc2c(c(=O)[nH]1)N(C=O)C(CNc1ccc(C(=O)N[C@@H](CCC(=O)O)C(=O)O)cc1)CN2 (stereo partly drawn) ; criterion: fold changes relative to vehicle control no lower than 1. Met?
criterion not met

====

Tested on: TB427.04.1870
Assay: Multitargeted bead mixture competition
Assay type: binding
Details: free ligand 100 μM, T. brucei lysate
Reported percentage of competition from bead binding values for a set of compounds

Consider the reported percentage of competition from bead binding for these compounds:
Value wanted: percentage of competition from bead binding (TB427.04.1870) of entry Nc1nc(O)c2c(CCc3ccccc3)c[nH]c2n1
50%

Ok, now Cc1ccc2nc(N)[nH]c(=O)c2c1Sc1ccncc1
52%

Ok, now Nc1nc2cccc(-c3ccccc3)c2n1Cc1ccc(Cl)c(Cl)c1
47%

---
Value wanted: percentage of competition from bead binding (TB427.04.1870) of entry CN(Cc1cnc2nc(N)nc(N)c2n1)c1ccc(C(=O)N[C@@H](CCC(=O)O)C(=O)O)cc1 [MTX, methotrexate]
58%

====

Biological target: HeLa cell extract proteins (Homo sapiens)
Construct: endogenous in cells; host or cells: HeLa cell extract
Assay type: binding
Conditions: HeLa; protein ECH1
Output true (1) for records whose fold changes relative to vehicle control is lower than 1, false (0) for records at or above 1.

Consider the following illustrative entries.
Please check: fold changes relative to vehicle control for NCCOCCOCC(=O)Nc1nc2ncc(CNc3ccc(C(=O)NC(CCC(=O)O)C(=O)O)cc3)nc2c(=O)[nH]1 (stereo not drawn) , strictly under 1 or not?
true (1)

Ok, now CCCCCCOc1cccc(Cc2cnc(N)nc2N)c1
true (1)

Ok, now CCCCCCOc1ccc(Cc2cnc(N)nc2N)cc1
true (1)

Okay, now this compound:
Please check: fold changes relative to vehicle control for Nc1nc2c(c(=O)[nH]1)N(C=O)C(CNc1ccc(C(=O)N[C@@H](CCC(=O)O)C(=O)O)cc1)CN2 (stereo partly drawn) , strictly under 1 or not?
false (0)

====

Test system: IRON/ASCORBATE OXIDOREDUCTASE FAMILY PROTEIN, PUTA (Tb427.02.6180)
Experiment: Multitargeted bead mixture competition
Format: binding, T. brucei
Settings: multitargeted bead mixture; free ligand 100 μM; T. brucei lysate; Tb427.02.6180
property_label: percentage of competition from bead binding (%)
Numbers only; they are read as %.

Consider the compound Cc1ccc2nc(N)[nH]c(=O)c2c1Sc1ccncc1 [NTX, nolatrexed] and give its measured percentage of competition from bead binding.
52

Ok, now Nc1nc2cccc(-c3ccccc3)c2n1Cc1ccc(Cl)c(Cl)c1 [compound 3]
0

Ok, now CN(Cc1cnc2nc(N)nc(N)c2n1)c1ccc(C(=O)N[C@@H](CCC(=O)O)C(=O)O)cc1 [MTX, methotrexate]
17

We now examine a further compound.
Consider the compound Nc1nc(O)c2c(CCc3ccccc3)c[nH]c2n1 [compound 5] and give its measured percentage of competition from bead binding.
80
